Values were extracted from paper PMC2886165.

target: Gal4-RORγ LBD (Homo sapiens, UniProt P51449); assay: Gal4-RORγ LBD cotransfection luciferase assay in HEK293 cells; assay type: cell-based
Sequence (P51449 269-508 limits assumed): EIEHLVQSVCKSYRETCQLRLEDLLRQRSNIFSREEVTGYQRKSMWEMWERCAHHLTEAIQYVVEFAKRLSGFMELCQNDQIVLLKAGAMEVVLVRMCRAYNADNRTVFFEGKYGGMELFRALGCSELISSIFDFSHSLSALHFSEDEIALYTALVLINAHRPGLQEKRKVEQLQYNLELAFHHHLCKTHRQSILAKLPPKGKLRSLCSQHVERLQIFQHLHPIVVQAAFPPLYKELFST
pIC50: −log10 of the molar value.
# pIC50 per record follows
Readout name: pIC50

Compound	Obs value
C[C@H](CC[C@@H]1OC1(C)C)[C@H]1CC[C@H]2[C@@H]3CC=C4C[C@@H](O)CC[C@]4(C)[C@H]3CC[C@]12C [24,25-epoC, 24(S),25 epoxycholesterol]	6.55
CC(C)[C@H](O)CC[C@@H](C)[C@H]1CC[C@H]2[C@@H]3CC=C4C[C@@H](O)CC[C@]4(C)[C@H]3CC[C@]12C [24R-OHC, 24R-hydroxycholesterol]	7.05

###

biological target: UniProtKB P51449; assay type: binding
pKi: −log10 of the molar value.

Molecule	pKi
CC(C)[C@H](O)CC[C@@H](C)[C@H]1CC[C@H]2[C@@H]3CC=C4C[C@@H](O)CC[C@]4(C)[C@H]3CC[C@]12C [24R-OHC, 24R-hydroxycholesterol]	6.99
C[C@H](CC[C@@H]1OC1(C)C)[C@H]1CC[C@H]2[C@@H]3CC=C4C[C@@H](O)CC[C@]4(C)[C@H]3CC[C@]12C [24,25-epoC, 24(S),25 epoxycholesterol]	7.70
